Data origin: the Human Domainome abundance scans (Beltran et al. 2025)

B1: E3 ubiquitin-protein ligase Midline-1, residues 172 to 214; numbered along this chain, O15344 (parent)
chain: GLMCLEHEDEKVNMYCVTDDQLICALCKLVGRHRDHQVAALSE

variants of: B1; assay: abundance fitness (aPCA) (normalised: wild type 0, dead -1); higher = more abundant; growth selection in yeast, the domain comes from the species named; details: Homo sapiens
observation.type: abundance fitness
One number for each entry.

These recorded examples may help you get a feel for the data.
# mutant.name, reported
rows = [
    ("D35I", -0.496),
    ("L29V", 0.008),
    ("L22M", 0.004),
]

Lab note: each variant below needs its abundance fitness filled in.
1. K28L
2. L2C
3. V30Y

1: -0.16; 2: 0.19; 3: -0.049

Lab note: each variant below needs its abundance fitness filled in.
1. A39Q
2. R32H

1. 0.04
2. -0.152

Lab note: each variant below needs its abundance fitness filled in.
1. M14W
2. V30L
3. V17D
4. L26A
5. E8F
6. V12K

1: -0.055; 2: -0.028; 3: 0.113; 4: 0.083; 5: -0.144; 6: 0.319

Lab note: each variant below needs its abundance fitness filled in.
1. C27V
2. D19M
3. V17K
4. G1E
5. L41M
6. Y15E

1. -1
2. -1.1
3. 0.444
4. 0.134
5. 0.069
6. 0.001

Lab note: each variant below needs its abundance fitness filled in.
1. L26E
2. S42P

[0.101, 0.056]
